# assay-notes: Metabolic stability in mouse Hepatocyte assessed as half life
# Type: ADME, cell-based
# particulars: hepatocytes
observation-type: half-life

Inquiry: # input molecule: CN1CCc2c(c3ccccc3n2Cc2ccc(C(=O)NO)cc2)C1 ; wanted: its half-life
Reply text: > 1 h

---

# assay-notes: Oral bioavailability in CD-1 mouse at 30 mg/kg
# Format: ADME, organism-based
# particulars: in vivo
observation-type: bioavailability (%)
Entry rule: numbers only, all in %.

Inquiry: # input molecule: CN1CCc2c(c3ccccc3n2Cc2ccc(C(=O)NO)cc2)C1 ; wanted: its bioavailability
Reply text: 5.9

---

# Test system: MDR1
# assay-notes: Efflux ratio of permeability in MDCK-MDR1 cells
# Assay type: ADME, cell-based, Canis lupus familiaris
# particulars: dog
observation-type: efflux ratio
Number only, no unit.

1) CN1CCc2c(c3ccccc3n2Cc2ccc(C(=O)NO)cc2)C1 :: 9.83
2) O=C(NO)c1ccc(CN2CCc3ccc(F)cc32)cc1 :: 1.05

Proceeding to the next compound to report its efflux ratio.
Inquiry: Please state recorded efflux ratio (tested on MDR1) of O=C(NO)c1ccc(Cn2cccn2)cc1
Reply text: 0.51

---

# assay-notes: Drug concentration in CD-1 mouse brain at 3 mg/kg, iv measured at 8 mins
# Format: ADME, organism-based
# particulars: read-out: Ct
Parameter concentration at 8 min: see the listing below.
Entry rule: numbers only, all in ng/g.

Consider the following illustrative entries.
1. O=C(NO)c1ccc(CN2CCc3ccc(F)cc32)cc1 :: 944
2. CN1CCc2c(c3ccccc3n2Cc2ccc(C(=O)NO)cc2)C1 [TUBASTATIN A] :: 40.5

Proceeding to the next compound to report its concentration at 8 min.
Inquiry: # input compound: O=C(NO)c1ccc(Cn2cccn2)cc1 ; wanted: its concentration at 8 min
Reply text: 354

---

# measured-target: Histone deacetylase 1 (Mus musculus, UniProt O09106)
# Sequence (O09106 whole entry): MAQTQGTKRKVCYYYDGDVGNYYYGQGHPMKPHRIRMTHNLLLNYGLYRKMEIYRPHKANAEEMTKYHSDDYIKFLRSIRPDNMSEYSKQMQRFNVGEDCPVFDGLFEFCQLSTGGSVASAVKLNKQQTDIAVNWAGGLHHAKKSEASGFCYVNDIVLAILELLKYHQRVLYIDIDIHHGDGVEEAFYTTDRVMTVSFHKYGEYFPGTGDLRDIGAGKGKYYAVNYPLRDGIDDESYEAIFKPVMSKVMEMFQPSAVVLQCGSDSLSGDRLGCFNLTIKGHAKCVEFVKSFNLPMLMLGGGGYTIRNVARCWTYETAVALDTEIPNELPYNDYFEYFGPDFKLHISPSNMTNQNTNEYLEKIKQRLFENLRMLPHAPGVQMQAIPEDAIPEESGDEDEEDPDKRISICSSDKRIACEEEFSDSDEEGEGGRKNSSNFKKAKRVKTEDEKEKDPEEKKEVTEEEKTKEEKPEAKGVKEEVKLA
# assay-notes: Inhibition of HDAC1 in mouse N2A cells
observation-type: IC50 (µM)
Entry rule: numbers only, all in µM.

Consider the following illustrative entries.
1) O=C(NO)c1ccc(Cn2cccn2)cc1 :: 6.86
2) O=C(NO)c1ccc(CN2CCc3ccc(F)cc32)cc1 :: 5.54

Proceeding to the next compound to report its IC50.
Inquiry: # input compound: CN1CCc2c(c3ccccc3n2Cc2ccc(C(=O)NO)cc2)C1 ; wanted: its IC50
Reply text: 8.1

---

# assay-notes: AUC in CD-1 mouse at 3 mg/kg, iv
# Type: ADME, organism-based
# particulars: in vivo
observation-type: AUC
// unit must come after the numeric part

Inquiry: # input molecule: CN1CCc2c(c3ccccc3n2Cc2ccc(C(=O)NO)cc2)C1 [TUBASTATIN A] ; wanted: its AUC
Reply text: 227 ng·h/mL

---

Parameter concentration at 1 h: see the listing below.
# assay-notes: Drug concentration in CD-1 mouse brain at 3 mg/kg, iv measured at 60 mins
# Assay type: ADME, organism-based
# particulars: read-out: Ct
Entry rule: numbers only, all in ng/g.

Consider the following illustrative entries.
1) O=C(NO)c1ccc(Cn2cccn2)cc1 :: 30.5
2) CN1CCc2c(c3ccccc3n2Cc2ccc(C(=O)NO)cc2)C1 [TUBASTATIN A] :: 17.5

Proceeding to the next compound to report its concentration at 1 h.
Inquiry: # input compound: O=C(NO)c1ccc(CN2CCc3ccc(F)cc32)cc1 ; wanted: its concentration at 1 h
Reply text: 7.6
